Reported values of IC50 for individual entries
Tested on: breast adenocarcinoma (MCF-7)
TEST: MTT cytotoxicity assay, MCF-7
ASSAY_CONDITIONS: Homo sapiens, MCF7, read-out: IC50 MCF-7
Report only the number, with the unit µM understood.

> print(dat)
                                 cpd.smiles  measure  meas.value
1  CC(=NNC(=O)CN1C(=O)NC(c2ccccc2)(c2ccccc2)C1=O)c1cccs1     IC50        76.8
2  CC(=NNC(=O)CN1C(=O)NC(c2ccccc2)(c2ccccc2)C1=O)c1ccccc1C     IC50        34.1
3  CC(=NNC(=O)CN1C(=O)NC(c2ccccc2)(c2ccccc2)C1=O)c1ccco1     IC50        47.3

# next molecule below
Prompt: For breast adenocarcinoma (MCF-7), provide IC50 of COc1ccc(C(C)=NNC(=O)CN2C(=O)NC(c3ccccc3)(c3ccccc3)C2=O)cc1 please.
Response: 35.8
